Where do the numbers come from? From PubChem BioAssay AID179.

# Tested on: CEM cells HIV-1 protection, formazan growth assay
# EXPERIMENT SUMMARY: NCI AIDS Antiviral Assay
# COND: measured here: growth of uninfected CEM cells
pIC50: −log10 of the molar value. Where a SMILES comes first, the peptide text is derived from it.
MEASURED QUANTITY: pIC50

# COMPOUND, VALUE PREFIX, TEST VALUE
rows = [
    ("CCOC(=O)NC(Nc1ccc(S(=O)(=O)Nc2ncccn2)cc1)(C(=O)OCC)C(F)(F)F (configuration not stated)", "<", 3.70),
    ("COC1OC(Cn2c(C)nc(Br)c2Br)C(O)C(O)C1O (configuration not stated)", "<", 3.70),
    ("Cc1ccccc1N=Nc1c(-c2ccccc2)nn(C(=O)CC(=O)Nc2cccc(Cl)c2)c1-c1ccccc1", "<", 4.60),
    ("Cc1ccc(S(=O)(=O)[N-]C2C(=O)c3ccccc3C(=O)C2[n+]2cccc(C(N)=O)c2)cc1 (configuration not stated)", "<", 3.70),
    ("Cc1cn(C2CC(N=[N+]=[N-])C(COC(=O)CCCCCCCCCCN=[N+]=[N-])O2)c(=O)[nH]c1=O (configuration not stated)", "=", 4.54),
    ("C[C@]1(O)CC[C@H]2[C@@H]3CC[C@H]4C[C@H](O)[C@@H]5C[C@]4(CO5)[C@H]3CC[C@@]21C", "<", 3.96),
    ("S=C(SSC(=S)N(Cc1ccccc1)Cc1ccccc1)N(Cc1ccccc1)Cc1ccccc1", "=", 4.82),
    ("COC(=O)c1c(O)c2c(c3c1OC(C)(C)CC3)OC(C)(C)CC2", "=", 4.03),
    ("COc1nc2c(c(=O)[nH]1)N=C(c1ccccc1)CC(c1ccccc1)N2 (configuration not stated)", "<", 3.70),
    ("CC1C=C2c3ccccc3CC2C2C(=O)OC(=O)C12 (configuration not stated)", "<", 3.70),
    ("COC1/C=C\\OC2(C)Oc3c(C)c(O)c4c(c3C2=O)C(=O)C=C(NC(=O)/C(C)=C\\C=C/C(C)C(O)C(C)C(O)C(C)C(OC(C)=O)C1C)C4=O (configuration not stated)", "=", 5.57),
    ("c1ccc(CSC(SCc2ccccc2)c2cccc3ccccc23)cc1", "<", 3.70),
    ("Cn1c(=O)c(C#N)c2n(c1=S)CCCCCCC2", "=", 3.95),
    ("CCN(CC)CP(CN(CC)CC)CN(CC)CC", "=", 3.90),
    ("CCN(CC)CCN1CC(=O)N2Cc3ccccc3CN2C(=O)C1", "<", 3.70),
    ("Cn1c(C2CC(C)(C)c3c2c2ccccc2n3C)cc2ccccc21 (configuration not stated)", "<", 4.66),
    ("O=c1ccc2ccccc2n1Cc1ccc2ccccc2n1", "=", 3.83),
    ("COc1cc(OC)c(/C=N/N=C(\\N)NO)c(OC)c1", "<", 3.70),
    ("O=c1[nH]cnc2c1ncn2Cc1ccccc1CCO", "<", 4.03),
    ("CC(=O)NC(CO)C(=O)NC(Cc1ccc(O)cc1)C(=O)NCC(N)=O (stereo not drawn) (Ac-Ser-Tyr-Gly-NH2; configuration not given here)", "<", 3.70),
    ("[Cu].c1ccc2c3[n-]c(c2c1)/N=c1\\[n-]/c(c2ccccc12)=N\\c1[n-]c(c2ccccc12)/N=c1\\[n-]/c(c2ccccc12)=N\\3", "=", 4.29),
    ("Cc1cc(=O)oc2cc(N(C)C)ccc12", "=", 4.43),
    ("CCC[CH2][Sn]1([CH2]CCC)[O]Cc2nc(C)ccc2[O]1", "=", 5.50),
    ("Cc1ccc(Nc2c3c(c(C#N)c4nc5ccccc5n24)CCCC3)cc1", "=", 4.97),
    ("CCOC(OCC)c1ccccc1.[C-]#[O+].[C-]#[O+].[C-]#[O+].[Cr]", "=", 5.69),
    ("OC(OCC(COC(O)C(Br)Br)(COC(O)C(Br)Br)COC(O)C(Br)Br)C(Br)Br (configuration not stated)", "<", 4.00),
    ("CCSCCCCCCCCCCC(=O)OCC1OC(n2cc(C)c(=O)[nH]c2=O)CC1O (configuration not stated)", "=", 4.58),
]
